# Tested on: E. coli strain W3110
# method: Synergy assays: Biolog chemical sensitivity panels with Group IB metal, coefficient of drug interaction (CDI) from relative growth
# Assay type: cell-based
# assay conditions: Copper (mM) section, 2nd of 3 copper concentrations (value not shown); 1st of four biocide concentrations
Binary classification by CDI (coefficient of drug interaction), copper mixed with biocide, with 0.8 as an inclusive lower bound for class 1; all other cases are class 0.

{"compound": "CCCCCCCCCCCC[N+](C)(C)CCCS(=O)(=O)O", "measurement target": "E. coli strain W3110", "group": "class 0"}
{"compound": "N.N.N.N.N.N.[Cl-].[Cl-].[Cl-].[Co+3] [hexammine cobalt (III) chloride]", "measurement target": "E. coli strain W3110", "group": "class 1"}
{"compound": "C[n+]1ccc(-c2cc[n+](C)cc2)cc1", "measurement target": "E. coli strain W3110", "group": "class 0"}
{"compound": "CCCCCCCCCCCC[N+](C)(C)C.[Br-]", "measurement target": "E. coli strain W3110", "group": "class 1"}

Let us examine a further case.
Exam item: Does CCCCCCCC[N+](C)(CCCCCCCC)CCCCCCCC.[Br-] have a reported CDI (coefficient of drug interaction), copper mixed with biocide of at least 0.8?
Marked response: class 1

This collection of values is drawn from patent US11382328B2.
